The molecules listed here are annotated with their NanoBRET Fold Response.
Target: FZD2 (Homo sapiens)
Construct: purchased Promega (in-house HiBiT-GPCR construct library, NanoBRET)
Sequence (Q14332 24-565): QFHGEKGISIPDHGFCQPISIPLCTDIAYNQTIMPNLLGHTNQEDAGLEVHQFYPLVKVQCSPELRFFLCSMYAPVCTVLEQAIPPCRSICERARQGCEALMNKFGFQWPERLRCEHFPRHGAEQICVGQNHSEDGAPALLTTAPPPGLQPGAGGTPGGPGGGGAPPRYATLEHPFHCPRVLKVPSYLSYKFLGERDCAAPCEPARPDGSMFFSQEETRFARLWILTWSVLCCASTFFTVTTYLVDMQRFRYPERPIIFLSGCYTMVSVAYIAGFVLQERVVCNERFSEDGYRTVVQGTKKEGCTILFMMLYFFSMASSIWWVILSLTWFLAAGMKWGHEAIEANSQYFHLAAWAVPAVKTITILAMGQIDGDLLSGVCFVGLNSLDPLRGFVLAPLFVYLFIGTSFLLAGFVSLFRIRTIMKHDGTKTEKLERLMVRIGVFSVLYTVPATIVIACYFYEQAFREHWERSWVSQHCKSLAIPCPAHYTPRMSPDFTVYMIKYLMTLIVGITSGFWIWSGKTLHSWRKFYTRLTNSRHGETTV
Experiment: NanoBRET screen HiBiT-FZD2 in HEK293
Type: binding
Details: FZD2; tracer 0.1μM
measured.attribute: NanoBRET Fold Response

CC(C)N(CC[C@H](c1ccccc1)c1cc(CCNC(=O)CCOCCOCCOCCOCCNC(=O)CCc2ccc3n2[B-](F)(F)[N+]2=C(c4ccc[nH]4)C=CC2=C3)ccc1O)C(C)C ... 0.91
COc1ccccc1N1CCN(CCCCN2C(=O)c3ccc(CNC(=O)CCOCCOCCOCCOCCNC(=O)CCc4ccc5n4[B-](F)(F)[N+]4=C(c6ccc[nH]6)C=CC4=C5)cc3C2=O)CC1 ... 0.97
CCCn1c(=O)c2[nH]c(-c3ccc(OCC(=O)NCCNC(=O)CCOCCNC(=O)c4ccc(CNC(=O)CCc5ccc6n5[B-](F)(F)[N+]5=C(c7ccc[nH]7)C=CC5=C6)cc4)cc3)nc2n(CCC)c1=O ... 1.09

====

The molecules listed here are annotated with their NanoBRET Fold Response.
Molecular target: BRS3 (Homo sapiens)
Construct: purchased Promega (in-house HiBiT-GPCR construct library, NanoBRET)
Sequence (P32247 whole entry): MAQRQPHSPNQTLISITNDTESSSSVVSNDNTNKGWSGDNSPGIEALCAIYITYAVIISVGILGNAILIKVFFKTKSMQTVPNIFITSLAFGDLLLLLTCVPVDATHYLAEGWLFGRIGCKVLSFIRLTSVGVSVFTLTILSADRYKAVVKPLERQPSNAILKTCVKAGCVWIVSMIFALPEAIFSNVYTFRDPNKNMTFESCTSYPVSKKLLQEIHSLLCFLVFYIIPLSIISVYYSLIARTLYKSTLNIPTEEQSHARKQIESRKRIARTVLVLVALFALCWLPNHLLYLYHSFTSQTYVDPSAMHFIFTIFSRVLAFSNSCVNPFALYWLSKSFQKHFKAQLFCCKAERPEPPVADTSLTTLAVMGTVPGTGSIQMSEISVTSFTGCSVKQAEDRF
Assay: NanoBRET screen HiBiT-BRS3 in HEK293
Format: binding
Conditions: BRS3; tracer 1μM
measured.attribute: NanoBRET Fold Response

Cc1cc2c(s1)Nc1ccccc1N=C2N1CCN(CCCNC(=O)CCOCCOCCOCCOCCNC(=O)CCc2ccc3n2[B-](F)(F)[N+]2=C(c4ccc[nH]4)C=CC2=C3)CC1 ... 1.05
N#CN=C(NCCCOc1cccc(CN2CCCCC2)c1)NCCNC(=O)CCOCCOCCOCCOCCNC(=O)CCc1ccc2n1[B-](F)(F)[N+]1=C(c3ccc[nH]3)C=CC1=C2 ... 1.00
CC(C)N(CC[C@H](c1ccccc1)c1cc(CCNC(=O)CCOCCOCCOCCOCCNC(=O)CCc2ccc3n2[B-](F)(F)[N+]2=C(c4ccc[nH]4)C=CC2=C3)ccc1O)C(C)C ... 1.04

====

Biological target: CNR2 (Homo sapiens, UniProt P34972)
Construct: purchased Promega (in-house HiBiT-GPCR construct library, NanoBRET)
Sequence (P34972 whole entry): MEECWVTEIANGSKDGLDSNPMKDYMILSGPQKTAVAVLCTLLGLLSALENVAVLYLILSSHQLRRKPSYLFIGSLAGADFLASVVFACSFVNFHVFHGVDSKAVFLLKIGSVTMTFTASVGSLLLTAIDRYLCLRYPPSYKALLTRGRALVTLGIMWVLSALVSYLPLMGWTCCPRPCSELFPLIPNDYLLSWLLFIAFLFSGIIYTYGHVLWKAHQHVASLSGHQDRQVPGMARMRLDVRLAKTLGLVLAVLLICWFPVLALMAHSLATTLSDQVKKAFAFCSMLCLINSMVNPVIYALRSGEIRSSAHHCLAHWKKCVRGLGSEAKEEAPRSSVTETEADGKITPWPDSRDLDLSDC
Assay: NanoBRET screen HiBiT-CNR2 in HEK293
Format: binding
Conditions: CNR2; tracer 0.1μM
Description: Each tracer candidate was screened across the entire library of HiBiT-GPCR constructs using NanoBRET as the detection modality. As depicted in Figure 4A, the specificity of interactions was evaluated through decrease in BRET due to competitive displacement of a bound tracer by excess parental compound. Each tracer was analyzed for binding to each HiBiT-GPCR fusion in the absence and in the presence of competing parental compound. […]
Rule: NanoBRET Fold Response below 0.9 gives MET, anything at or above gives NOT MET.

CCCn1c(=O)c2[nH]c(-c3ccc(OCC(=O)NCCNC(=O)CCOCCNC(=O)c4ccc(CNC(=O)CCc5ccc6n5[B-](F)(F)[N+]5=C(c7ccc[nH]7)C=CC5=C6)cc4)cc3)nc2n(CCC)c1=O ... NOT MET
O=C(CCOCCOCCOCCOCCNC(=O)CCc1ccc2n1[B-](F)(F)[N+]1=C(c3ccc[nH]3)C=CC1=C2)NCCCN1CCN(C2=Nc3ccccc3Oc3ccc(Cl)cc32)CC1 ... MET
O=C(CCc1ccc2n1[B-](F)(F)[N+]1=C(c3ccc[nH]3)C=CC1=C2)NCCOCCOCCNC(=O)OCCOCCN1CCN(C2=Nc3ccccc3Sc3ccccc32)CC1 ... NOT MET
Cc1cc2c(s1)Nc1ccccc1N=C2N1CCN(CCCNC(=O)CCOCCOCCOCCOCCNC(=O)CCc2ccc3n2[B-](F)(F)[N+]2=C(c4ccc[nH]4)C=CC2=C3)CC1 ... MET
N#CN=C(NCCCOc1cccc(CN2CCCCC2)c1)NCCNC(=O)CCOCCOCCOCCOCCNC(=O)CCc1ccc2n1[B-](F)(F)[N+]1=C(c3ccc[nH]3)C=CC1=C2 ... NOT MET
COc1ccccc1N1CCN(CCCCN2C(=O)c3ccc(CNC(=O)CCOCCOCCOCCOCCNC(=O)CCc4ccc5n4[B-](F)(F)[N+]4=C(c6ccc[nH]6)C=CC4=C5)cc3C2=O)CC1 ... MET
COc1ccccc1N1CCN(CCCCN2C(=O)c3ccc(CNC(=O)CCOCCNC(=O)c4ccc(CNC(=O)CCc5ccc6n5[B-](F)(F)[N+]5=C(c7ccc[nH]7)C=CC5=C6)cc4)cc3C2=O)CC1 ... NOT MET
CN(C)CCC=C1c2ccccc2CCc2ccc(C(=O)NCCNC(=O)CCOCCOCCOCCOCCNC(=O)CCc3ccc4n3[B-](F)(F)[N+]3=C(c5ccc[nH]5)C=CC3=C4)cc21 ... NOT MET
Cc1nc2n(c(=O)c1CCN1CCC(c3noc4cc(F)ccc34)CC1)CCCC2OC(=O)NCCOCCOCCOCCOCCNC(=O)CCc1ccc2n1[B-](F)(F)[N+]1=C(c3ccc[nH]3)C=CC1=C2 (centres unmarked) ... NOT MET
CC(C)N(CC[C@H](c1ccccc1)c1cc(CCNC(=O)CCOCCOCCOCCOCCNC(=O)CCc2ccc3n2[B-](F)(F)[N+]2=C(c4ccc[nH]4)C=CC2=C3)ccc1O)C(C)C ... NOT MET
